Value source: patent US20120172293A1

- ASSAY_TARGET: human Y2 receptor (human) (UniProt P49146)
- Sequence (P49146 whole entry): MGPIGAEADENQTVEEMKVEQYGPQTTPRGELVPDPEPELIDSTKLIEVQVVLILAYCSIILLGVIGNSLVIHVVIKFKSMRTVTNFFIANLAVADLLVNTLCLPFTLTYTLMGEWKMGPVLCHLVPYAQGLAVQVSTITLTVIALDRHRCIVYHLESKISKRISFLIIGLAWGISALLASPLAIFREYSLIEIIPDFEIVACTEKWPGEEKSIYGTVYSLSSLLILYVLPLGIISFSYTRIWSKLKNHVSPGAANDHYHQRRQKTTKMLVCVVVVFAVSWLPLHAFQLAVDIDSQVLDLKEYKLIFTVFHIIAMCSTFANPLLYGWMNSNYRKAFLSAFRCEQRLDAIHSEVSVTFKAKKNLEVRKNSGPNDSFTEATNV
- METHOD_SUMMARY: RBA: [125I]-PYY displacement, hY2R/CHO membranes
Starred links: 1 amine or outer side, 2 acyl side, 3 side chain; linkers in the order of their positions; H or OH if unused. Non-standard residues stand in square brackets, D forms with d. Primed or numbered codes have the meaning given here. *: point of attachment. Ser(Me)″ = O-methylserine, COC[C@H](N[*:1])C(=O)[*:2]; Ala(cPr) = N[C@@H](CC1CC1)C(=O)O; Cha = N[C@@H](CC1CCCCC1)C(=O)O; Isobutyryl = CC(C)C(=O)*; Abu = CC[C@H](N)C(=O)O; Aib = CC(C)(N)C(=O)O; Bz = O=C(c1ccccc1)*
MEASURE: IC50 Ratio (vs PYY(3-36))
Numbers only.

Could I get IC50 Ratio (vs PYY(3-36)) for every one of these entries?
1. Bz-R[Ser(Me)″][Cha][Cha]NL[Aib]TRQR[Cha]-NH2 (SMILES COC[C@H](NC(=O)[C@H](CCCNC(=N)N)NC(=O)c1ccccc1)C(=O)N[C@@H](CC1CCCCC1)C(=O)N[C@@H](CC1CCCCC1)C(=O)N[C@@H](CC(N)=O)C(=O)N[C@@H](CC(C)C)C(=O)NC(C)(C)C(=O)N[C@H](C(=O)N[C@@H](CCCNC(=N)N)C(=O)N[C@@H](CCC(N)=O)C(=O)N[C@@H](CCCNC(=N)N)C(=O)N[C@@H](CC1CCCCC1)C(N)=O)[C@@H](C)O) [Benzoyl-[Ser(Me)26, Cha27,28,36, Aib31]-PYY(25-36)]
2. Isobutyryl-R[Abu][Cha][Cha]N[Ala(cPr)][Aib]TRQR[Cha]-NH2 (SMILES CC[C@H](NC(=O)[C@H](CCCNC(=N)N)NC(=O)C(C)C)C(=O)N[C@@H](CC1CCCCC1)C(=O)N[C@@H](CC1CCCCC1)C(=O)N[C@@H](CC(N)=O)C(=O)N[C@@H](CC1CC1)C(=O)NC(C)(C)C(=O)N[C@H](C(=O)N[C@@H](CCCNC(=N)N)C(=O)N[C@@H](CCC(N)=O)C(=O)N[C@@H](CCCNC(=N)N)C(=O)N[C@@H](CC1CCCCC1)C(N)=O)[C@@H](C)O) [Isobutanoyl-[Abu26, Cha27,28,36, Ala(cPr)30, Aib31]-PYY(25-36)]

Result ::
1. 18
2. 17
